- tested.system: T1, human GIP receptor (human, UniProt P48546 22-466)
- T1 sequence (looked up): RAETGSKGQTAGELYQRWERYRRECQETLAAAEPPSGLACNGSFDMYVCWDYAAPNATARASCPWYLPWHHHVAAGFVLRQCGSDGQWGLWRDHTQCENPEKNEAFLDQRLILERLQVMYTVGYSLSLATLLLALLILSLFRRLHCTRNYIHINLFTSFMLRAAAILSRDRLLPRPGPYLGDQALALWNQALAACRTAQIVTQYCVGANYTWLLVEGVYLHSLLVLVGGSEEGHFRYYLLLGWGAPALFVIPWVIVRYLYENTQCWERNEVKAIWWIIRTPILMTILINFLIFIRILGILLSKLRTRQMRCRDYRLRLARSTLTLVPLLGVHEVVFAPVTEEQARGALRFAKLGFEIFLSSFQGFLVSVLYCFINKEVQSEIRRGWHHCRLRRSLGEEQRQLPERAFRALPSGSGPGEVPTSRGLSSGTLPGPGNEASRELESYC
- method.summary: cell-based or functional assay
Starred links: 1 amine or outer side, 2 acyl side, 3 side chain; linkers in the order of their positions; H or OH if unused. Non-standard residues stand in square brackets, D forms with d. Groups on a side chain read outwards from the residue. No end group written: not given here. *: point of attachment. C18 diacid = O=C(O)CCCCCCCCCCCCCCCCC(=O)*; εLys = N[C@@H](CCCCN[*:1])C(=O)[*:2]; Aib = CC(C)(N)C(=O)O
endpoint.name: EC50, CreLuc assay, 100% hP (nM)
Only the number, expressed in nM, is required.

Here's what some known entries look like.
{"binder": "YXEGTFTSDYSIXLEKQAQXAFVQWLIKGGPESPASLRHYYNWLTRQRY (Aib at 2, 13, 20; K28 side chain: C18DA-gGlu-gGlu-gGlu-gGlu-gGlu; C-terminal NH2) [Compound 12]", "EC50, CreLuc assay, 100% hP (nM)": 1.8}
{"binder": "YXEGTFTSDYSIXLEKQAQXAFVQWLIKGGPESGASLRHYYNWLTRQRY (Aib at 2, 13, 20; K28 side chain: C20DA-gGlu-gGlu-gGlu-gGlu-gGlu-gGlu-eLys; C-terminal NH2) [Compound 37]", "EC50, CreLuc assay, 100% hP (nM)": 1.44}
{"binder": "Y[Aib]EGTFTSDYSI[Aib]LEKQAQ[Aib]AFVQWLIK([εLys-Glu-Glu-Glu-Glu-Glu-C18 diacid])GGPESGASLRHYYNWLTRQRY-NH2 (also: TFA salt) [Compound 63]", "EC50, CreLuc assay, 100% hP (nM)": 0.89}
{"binder": "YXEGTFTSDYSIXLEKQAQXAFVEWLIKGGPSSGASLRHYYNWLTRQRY (Aib at 2, 13, 20; NMeQ 47; K28 side chain: C20DA-gGlu-gGlu-gGlu-gGlu-gGlu-gGlu-eLys; C-terminal NH2) [Compound 85]", "EC50, CreLuc assay, 100% hP (nM)": 1.11}

// next entry
GET /values?readout=EC50, CreLuc assay, 100% hP&item= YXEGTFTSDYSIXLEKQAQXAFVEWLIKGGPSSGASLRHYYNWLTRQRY (Aib at 2, 13, 20; DHis 39; DArg 46; DTyr 49; K28 side chain: C20DA-gGlu-gGlu-gGlu-gGlu-gGlu-gGlu-eLys; C-terminal NH2) [Compound 21]
0.87
